Hey, just so you know, these numbers are from ChEMBL document CHEMBL3421532.

- assay protocol: Antiproliferative activity against human NB4 cells assessed as cell growth inhibition after 48 hrs by XTT assay
- Assay type: functional, cell-based
- applied conditions: NB-4, 48 h
property: pIC50
Hey, just a heads up that pIC50 is the negative log base 10 of the concentration in molar.

Examples with answers:
{"compound": "C/C=C(\\COC(=O)c1ccccc1)C(=O)c1ccc(OC)cc1", "pIC50": 4.79}
{"compound": "CC(=O)OC/C(=C/c1ccccc1F)C(=O)c1ccccc1", "pIC50": 5.08}
{"compound": "C=C(C/C(=C\\c1ccccc1)C(=O)c1ccc(OC)cc1)C(=O)c1ccc(OC)cc1", "pIC50": 5.13}
{"compound": "COc1ccc(C(=O)/C(=C/C2CCCCC2)COC(C)=O)cc1", "pIC50": 4.63}
{"compound": "C=C(C(=O)c1ccc(OC)cc1)C(OC(C)=O)c1ccc([N+](=O)[O-])cc1 (configuration not stated)", "pIC50": 4.99}
{"compound": "COc1ccc(C(=O)/C(=C/c2ccccc2Cl)CCOC(C)=O)cc1", "pIC50": 4.29}

Task item: Can you look up the measured pIC50 of C=C(C(=O)c1ccc(OC)cc1OC)C(OC(C)=O)c1ccccc1[N+](=O)[O-] (configuration not stated) for me?
Reply: 5.06

----------
- assay protocol: Antiproliferative activity against human NB4 cells assessed as cell growth inhibition after 48 hrs by XTT assay
- Assay type: functional, cell-based
- applied conditions: NB-4, 48 h
property: IC50 (µM)
The figure you give is taken to be in µM; do not add the unit.

Check out these entries, answers already filled in.
{"compound": "COc1ccc(C(=O)/C(=C/c2ccccc2F)COC(C)=O)cc1", "unit of measurement": "µM", "IC50": 8.2}
{"compound": "C=C(C(=O)c1ccc(OC)cc1)C(OC(=O)c1ccccc1)c1ccc([N+](=O)[O-])cc1 (stereo not given)", "unit of measurement": "µM", "IC50": 13.2}
{"compound": "COc1ccc(C(=O)/C(=C/c2ccc(Cl)cc2)CC(C)C)cc1", "unit of measurement": "µM", "IC50": 12.1}
{"compound": "COc1ccc(C(=O)/C(=C/c2ccc([N+](=O)[O-])cc2)CC(C)C)cc1", "unit of measurement": "µM", "IC50": 0.6}
{"compound": "CC(=O)OC/C(=C\\c1ccc(Cl)cc1Cl)C(=O)c1ccccc1", "unit of measurement": "µM", "IC50": 6.6}
{"compound": "COc1ccc(C(=O)/C(=C/c2ccc(Cl)cc2Cl)CC(C)OC(C)=O)cc1 (stereo not given)", "unit of measurement": "µM", "IC50": 36.8}
{"compound": "CC(=O)OC/C(=C\\c1ccccc1F)C(=O)c1ccccc1", "unit of measurement": "µM", "IC50": 5.8}
{"compound": "COc1ccc(C(=O)/C(=C/c2ccc(Cl)cc2)CCOC(C)=O)cc1", "unit of measurement": "µM", "IC50": 36.3}
{"compound": "COc1ccc(C(=O)/C(=C/c2ccc(Cl)cc2Cl)CN(C)C(=O)c2ccccc2)cc1", "unit of measurement": "µM", "IC50": 24}

Task item: Returns the measured IC50 for the input compound. Input: C=C(C(=O)c1ccc(OC)cc1)C(OC(=O)c1ccccc1)C1CCCCC1 (stereo not given)
Reply: 10
